Cited source: patent US11053223B2

system under test: KIT exon11 deletion (557-558) and secondary mutation D816H (Homo sapiens, UniProt P10721, D816H/DEL557-558)
Construct: expressed in transfected cells; host or cells: Ba/F3 cells infected with lentivirus (pLVX-IRES Puro vector)
Sequence (P10721 with tags, fused parts or gaps DEL557-558/D816H): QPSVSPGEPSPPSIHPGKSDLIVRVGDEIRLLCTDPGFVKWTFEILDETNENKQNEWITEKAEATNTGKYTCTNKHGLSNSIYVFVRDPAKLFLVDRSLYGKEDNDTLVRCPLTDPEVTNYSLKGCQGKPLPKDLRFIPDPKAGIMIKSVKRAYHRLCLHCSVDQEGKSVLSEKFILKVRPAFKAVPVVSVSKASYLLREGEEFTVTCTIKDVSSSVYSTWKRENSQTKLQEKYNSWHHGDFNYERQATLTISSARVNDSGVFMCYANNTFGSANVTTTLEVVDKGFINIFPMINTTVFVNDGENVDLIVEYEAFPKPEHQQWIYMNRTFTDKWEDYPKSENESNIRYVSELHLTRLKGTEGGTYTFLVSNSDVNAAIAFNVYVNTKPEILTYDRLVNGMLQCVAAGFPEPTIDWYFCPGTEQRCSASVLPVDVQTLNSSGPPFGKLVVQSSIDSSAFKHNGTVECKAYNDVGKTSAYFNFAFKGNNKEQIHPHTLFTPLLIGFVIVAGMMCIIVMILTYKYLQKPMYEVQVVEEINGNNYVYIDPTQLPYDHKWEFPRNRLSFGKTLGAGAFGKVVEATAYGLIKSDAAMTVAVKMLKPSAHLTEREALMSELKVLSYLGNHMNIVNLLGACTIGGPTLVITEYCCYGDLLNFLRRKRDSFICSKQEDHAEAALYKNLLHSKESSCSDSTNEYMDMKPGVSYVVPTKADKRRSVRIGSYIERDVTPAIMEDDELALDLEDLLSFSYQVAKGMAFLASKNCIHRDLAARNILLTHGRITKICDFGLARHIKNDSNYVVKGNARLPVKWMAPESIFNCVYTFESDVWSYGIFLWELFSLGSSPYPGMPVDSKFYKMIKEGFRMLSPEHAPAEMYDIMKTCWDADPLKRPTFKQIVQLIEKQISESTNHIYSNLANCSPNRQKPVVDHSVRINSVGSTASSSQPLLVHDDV
assay notes: MTS viability assay, Ba/F3 expressing KIT exon11 deletion (557-558) and D816H
Assay type: cell-based
measurement parameters: 72 h, KIT exon11 deletion (557-558) plus secondary mutation, mean of at least 3 biological replicates
Protocol: 3 different KIT cDNA encoding for the exon11 deletion (557-558) and a secondary mutation (V654A, T670I, D816H) from Genescript were cloned into pLVX-IRES Puro vector(Clontech). […] The impact of KIT inhibitors on the viability of Ba/F3 expressing KIT mutations was determined using an MTS assay, which is a colorimetric sensitive quantification of viable cells in proliferation and cytotoxicity assay. […] The absorbances were normalized as follows: (Read-Day0 control)/(Day3 control-Day0 control)*100. […]
measured attribute: Ba/F3-D816H GI50 (nM)

1) COc1cc2c(Oc3ccc(NC(=O)Cn4cc(C(C)C)nn4)cc3)ncnc2cc1O[C@@H]1CCOC1 (single isomer, unassigned) : 22
2) COc1cc2c(Oc3ccc(NC(=O)Cn4cc(C(C)C)nn4)cc3)ncnc2cc1O[C@H]1CCOC1 (single isomer, unassigned) : 24
3) COc1cc2c(Oc3ccc(NC(=O)Cn4cc(C(C)C)nn4)cc3)ncnc2cc1OC1CCOCC1 : 46
4) COc1cc2c(Oc3ccc(NC(=O)Cn4cc(C(C)C)nn4)cc3)ncnc2cc1OCCN(C)C : 41

* * *

Below, each of the molecules is paired with its reported Ba/F3-T6701 GI50 value.
system under test: KIT exon11 deletion (557-558) and secondary mutation T670I (Homo sapiens, UniProt P10721, DEL557-558/T670I)
Construct: expressed in transfected cells; host or cells: Ba/F3 cells infected with lentivirus (pLVX-IRES Puro vector)
Sequence (P10721 with tags, fused parts or gaps DEL557-558/T670I): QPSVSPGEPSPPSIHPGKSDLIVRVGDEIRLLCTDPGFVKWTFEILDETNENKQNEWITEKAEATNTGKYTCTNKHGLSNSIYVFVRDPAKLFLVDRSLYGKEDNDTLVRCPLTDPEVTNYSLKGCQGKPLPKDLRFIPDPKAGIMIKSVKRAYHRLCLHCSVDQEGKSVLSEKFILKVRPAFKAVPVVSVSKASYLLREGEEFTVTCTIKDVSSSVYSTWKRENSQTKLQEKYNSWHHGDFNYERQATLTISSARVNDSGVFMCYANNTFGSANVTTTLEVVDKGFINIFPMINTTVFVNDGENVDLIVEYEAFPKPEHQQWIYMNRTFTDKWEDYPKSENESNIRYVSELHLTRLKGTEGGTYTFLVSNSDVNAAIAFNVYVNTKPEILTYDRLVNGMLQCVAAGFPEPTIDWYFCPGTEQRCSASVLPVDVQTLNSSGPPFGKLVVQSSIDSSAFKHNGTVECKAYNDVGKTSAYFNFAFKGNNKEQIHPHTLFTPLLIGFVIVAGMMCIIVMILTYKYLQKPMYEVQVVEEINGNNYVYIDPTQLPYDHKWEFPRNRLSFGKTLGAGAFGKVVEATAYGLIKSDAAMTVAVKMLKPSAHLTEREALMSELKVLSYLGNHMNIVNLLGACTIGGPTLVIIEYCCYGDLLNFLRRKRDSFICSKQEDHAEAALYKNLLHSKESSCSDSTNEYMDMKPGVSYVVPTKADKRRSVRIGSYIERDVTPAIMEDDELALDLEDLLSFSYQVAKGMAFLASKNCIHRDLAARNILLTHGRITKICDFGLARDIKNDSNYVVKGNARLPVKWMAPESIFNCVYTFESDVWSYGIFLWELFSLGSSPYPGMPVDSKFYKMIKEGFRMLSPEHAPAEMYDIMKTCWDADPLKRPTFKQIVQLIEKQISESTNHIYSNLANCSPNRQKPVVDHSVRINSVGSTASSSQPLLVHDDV
assay notes: MTS viability assay, Ba/F3 expressing KIT exon11 deletion (557-558) and T670I
Assay type: cell-based
measurement parameters: 72 h, KIT exon11 deletion (557-558) plus secondary mutation, mean of at least 3 biological replicates
measured attribute: Ba/F3-T6701 GI50

1. COc1cc2ncnc(Oc3ccc(NC(=O)Cn4cc(C(C)C)nn4)cc3)c2cc1OC [Example 1] : 17 nM
2. COc1cc2c(Oc3ccc(NC(=O)Cn4cc(C(C)C)nn4)cc3)ncnc2cc1OC(C)C [Example 11] : 57 nM
3. COc1cc2c(Oc3ccc(NC(=O)Cn4cc(C(C)C)nn4)cc3)ncnc2cc1OCCN(C)C [Example 7] : 57 nM
4. COc1cc2c(Oc3ccc(NC(=O)Cn4cc(C(C)C)nn4)cc3)ncnc2cc1OCCO [Example 8] : 55 nM
5. COc1cc2c(Oc3ccc(NC(=O)Cn4cc(C(C)C)nn4)cc3)ncnc2cc1O[C@H]1CCOC1 (single isomer, unassigned) [Example 13] : 30 nM
6. COc1cc2ncnc(Oc3ccc(NC(=O)Cn4cc(C5CC5)nn4)cc3)c2cc1OC [Example 2] : 68 nM
7. COc1cc2c(Oc3ccc(NC(=O)Cn4cc(C(C)C)nn4)cc3)ncnc2cc1OC1COC1 [Example 10] : 74 nM
8. COc1cc2c(Oc3ccc(NC(=O)Cn4cc(C(C)C)nn4)cc3)ncnc2cc1OCCN1CCCC1 [Example 6] : 72 nM
9. COc1cc2c(Oc3ccc(NC(=O)Cn4cc(C(C)C)nn4)cc3)ncnc2cc1O[C@@H]1CCOC1 (single isomer, unassigned) [Example 12] : 23 nM
10. COc1cc2c(Oc3ccc(NC(=O)Cn4cc(C(C)C)nn4)cc3)ncnc2cc1OC1CCOCC1 [Example 9] : 77 nM
11. COCCOc1cc2ncnc(Oc3ccc(NC(=O)Cn4cc(C(C)C)nn4)cc3)c2cc1OC [Example 5] : 11 nM
12. COc1cc2ncnc(Oc3ccc(NC(=O)Cn4cc(C(C)C)nn4)cc3F)c2cc1OC [Example 4] : 8 nM
13. COc1cc(Oc2ncnc3cc(OC)c(OC)cc23)ccc1NC(=O)Cn1cc(C(C)C)nn1 [Example 3] : 23 nM

* * *

system under test: KIT exon11 deletion (557-558) and secondary mutation D816H (Homo sapiens, UniProt P10721, D816H/DEL557-558)
Construct: expressed in transfected cells; host or cells: Ba/F3 cells infected with lentivirus (pLVX-IRES Puro vector)
assay notes: MTS viability assay, Ba/F3 expressing KIT exon11 deletion (557-558) and D816H
Format: cell-based
measurement parameters: 72 h, KIT exon11 deletion (557-558) plus secondary mutation, mean of at least 3 biological replicates
This listing pairs molecules with measured Ba/F3-D816H GI50.
measured attribute: Ba/F3-D816H GI50

1. COc1cc2c(Oc3ccc(NC(=O)Cn4cc(C(C)C)nn4)cc3)ncnc2cc1OC1COC1 : 51 nM
2. COCCOc1cc2ncnc(Oc3ccc(NC(=O)Cn4cc(C(C)C)nn4)cc3)c2cc1OC : 15 nM
3. COc1cc2ncnc(Oc3ccc(NC(=O)Cn4cc(C(C)C)nn4)cc3F)c2cc1OC : 15 nM
4. COc1cc2c(Oc3ccc(NC(=O)Cn4cc(C(C)C)nn4)cc3)ncnc2cc1OC(C)C : 28 nM
5. COc1cc2c(Oc3ccc(NC(=O)Cn4cc(C(C)C)nn4)cc3)ncnc2cc1OCCO : 75 nM
6. COc1cc2ncnc(Oc3ccc(NC(=O)Cn4cc(C(C)C)nn4)cc3)c2cc1OC : 19 nM
7. COc1cc2ncnc(Oc3ccc(NC(=O)Cn4cc(C5CC5)nn4)cc3)c2cc1OC : 95 nM
8. COc1cc(Oc2ncnc3cc(OC)c(OC)cc23)ccc1NC(=O)Cn1cc(C(C)C)nn1 : 41 nM
9. COc1cc2c(Oc3ccc(NC(=O)Cn4cc(C(C)C)nn4)cc3)ncnc2cc1OCCN1CCCC1 : 55 nM

* * *

List of log10 of GI50 values.
Test system: Tel-KDR (KDR K790-V1356 fused to the C-terminus of Tel)
measured attribute: log10 of GI50 (log10 of the value in nM)

1. COc1cc2ncnc(Oc3ccc(NC(=O)Cn4cc(C(C)C)nn4)cc3)c2cc1OC : 2.78
2. COc1cc2ncnc(Oc3ccc(NC(=O)Cn4cc(C5CC5)nn4)cc3)c2cc1OC : 3.29
3. COc1cc2ncnc(Oc3ccc(NC(=O)Cn4cc(C(C)C)nn4)cc3F)c2cc1OC : 2.15
4. COc1cc2c(Oc3ccc(NC(=O)Cn4cc(C(C)C)nn4)cc3)ncnc2cc1O[C@H]1CCOC1 (single isomer, unassigned) : 2.76
5. COc1cc2c(Oc3ccc(NC(=O)Cn4cc(C(C)C)nn4)cc3)ncnc2cc1OC(C)C : 2.96
6. COc1cc2c(Oc3ccc(NC(=O)Cn4cc(C(C)C)nn4)cc3)ncnc2cc1O[C@@H]1CCOC1 (single isomer, unassigned) : 2.92
7. COCCOc1cc2ncnc(Oc3ccc(NC(=O)Cn4cc(C(C)C)nn4)cc3)c2cc1OC : 2.46
8. COc1cc2c(Oc3ccc(NC(=O)Cn4cc(C(C)C)nn4)cc3)ncnc2cc1OCCN1CCCC1 : 3.44
9. COc1cc2c(Oc3ccc(NC(=O)Cn4cc(C(C)C)nn4)cc3)ncnc2cc1OC1CCOCC1 : 3.32
10. COc1cc(Oc2ncnc3cc(OC)c(OC)cc23)ccc1NC(=O)Cn1cc(C(C)C)nn1 : 3.03
11. COc1cc2c(Oc3ccc(NC(=O)Cn4cc(C(C)C)nn4)cc3)ncnc2cc1OCCN(C)C : 3.40
12. COc1cc2c(Oc3ccc(NC(=O)Cn4cc(C(C)C)nn4)cc3)ncnc2cc1OC1COC1 : 3.26
13. COc1cc2c(Oc3ccc(NC(=O)Cn4cc(C(C)C)nn4)cc3)ncnc2cc1OCCO : 3.06
